Organism: Rattus norvegicus
Experiment: Open TG-GATES - Regimen: Single
Assay type: toxicity, organism-based, Sprague-Dawley
Set-up: regimen Single, gender Male, age 6 weeks
Details: in vivo, po, 0 mg/kg, 9 h, route gavage, dose level Control
Everything with TERMINAL_BW lower than 200 g is false; everything else, including exactly 200 g, is true.

NC1=NC(=O)C(c2ccccc2)O1 (stereo unspecified)
true

Does CCCc1cc(=O)[nH]c(=S)[nH]1 have a reported TERMINAL_BW of at least 200 g?
false

Hi, just wondering whether COC(=O)C1=C(C)NC(C)=C(C(=O)OC)C1c1ccccc1[N+](=O)[O-] shows TERMINAL_BW of 200 g or higher.
false

Reported TERMINAL_BW reaches at least 200 g for CN/C(=N/CCSCc1nc[nH]c1C)NC#N ?
true

Could you please find out whether Cc1nnc2n1-c1ccc(Cl)cc1C(c1ccccc1Cl)=NC2 has TERMINAL_BW that meets 200 g or exceeds it?
false

Hello, I need to know if CN1C(=O)CCS(=O)(=O)C1c1ccc(Cl)cc1 (stereo unspecified) has measured TERMINAL_BW not below 200 g. Thanks!
true

---

Each entry below lists one item and its recorded Plat value.
Species: Rattus norvegicus
Assay: Open TG-GATES - Regimen: Daily Repeat
Format: toxicity, organism-based, Sprague-Dawley
Parameters: regimen Daily Repeat, gender Male, age 6 weeks
Settings: in vivo, po, 1000 mg/kg, 72 h, tissue Blood, route gavage, dose level High, time 3 day
Answer in x10_4/uL, number only, no unit symbol.

Please give measured Plat of the following entry: Cc1nnc2n1-c1ccc(Cl)cc1C(c1ccccc1Cl)=NC2 [TRIAZOLAM]
124.4

// fetch Plat given entry COC(=O)C1=C(C)NC(C)=C(C(=O)OC)C1c1ccccc1[N+](=O)[O-] [NIFEDIPINE]
134.4

Indicate the recorded Plat value for this compound: CN/C(=N/CCSCc1nc[nH]c1C)NC#N [CIMETIDINE]
135

---

Some molecules, each annotated with its measured Fbg.
Species on record: Rattus norvegicus
Test: Open TG-GATES - Regimen: Single
Type: toxicity, organism-based, Sprague-Dawley
Set-up: regimen Single, gender Male, age 6 weeks
Conditions: in vivo, po, 0 mg/kg, 6 h, tissue Blood, route gavage, dose level Control
Give the value in mg/dL but do not write mg/dL after it.

Worked cases, Fbg given:
CCCc1cc(=O)[nH]c(=S)[nH]1
206.8
CN1C(=O)CCS(=O)(=O)C1c1ccc(Cl)cc1 (stereo not given)
310.2
CC(C)NNC(=O)c1ccncc1
305.8
Brc1ccccc1
276.2

Attention now shifts to the item below.
Fill in reported Fbg for this entry: O=C(OC[C@H]1O[C@@H](OC(=O)c2cc(O)c(O)c(OC(=O)c3cc(O)c(O)c(O)c3)c2)[C@H](OC(=O)c2cc(O)c(O)c(OC(=O)c3cc(O)c(O)c(O)c3)c2)[C@@H](OC(=O)c2cc(O)c(O)c(OC(=O)c3cc(O)c(O)c(O)c3)c2)[C@@H]1OC(=O)c1cc(O)c(O)c(OC(=O)c2cc(O)c(O)c(O)c2)c1)c1cc(O)c(O)c(OC(=O)c2cc(O)c(O)c(O)c2)c1
227

---

Species on record: Rattus norvegicus
Assay: Open TG-GATES - Regimen: Daily Repeat
Type: toxicity, organism-based, Sprague-Dawley
Design: regimen Daily Repeat, gender Male, age 6 weeks
Details: in vivo, po, 0 mg/kg, […], tissue Plasma, route gavage, dose level Control, time 14 day
attribute measured: GLC (mg/dL)
Use mg/dL as the unit, but write only the number.

In the examples that follow, each entry is paired with its recorded GLC.
CC(C)NNC(=O)c1ccncc1
187.4
Brc1ccccc1
191.6
CCOc1ccc(NC(C)=O)cc1
181.4

Okay, next one:
Entry O=C(OC[C@H]1O[C@@H](OC(=O)c2cc(O)c(O)c(OC(=O)c3cc(O)c(O)c(O)c3)c2)[C@H](OC(=O)c2cc(O)c(O)c(OC(=O)c3cc(O)c(O)c(O)c3)c2)[C@@H](OC(=O)c2cc(O)c(O)c(OC(=O)c3cc(O)c(O)c(O)c3)c2)[C@@H]1OC(=O)c1cc(O)c(O)c(OC(=O)c2cc(O)c(O)c(O)c2)c1)c1cc(O)c(O)c(OC(=O)c2cc(O)c(O)c(O)c2)c1 needs its GLC filled in; supply it.
198

---

// values below are reported Lym
Organism: Rattus norvegicus
Experiment: Open TG-GATES - Regimen: Daily Repeat
Type: toxicity, organism-based, Sprague-Dawley
Design: regimen Daily Repeat, gender Male, age 6 weeks
Settings: in vivo, po, 300 mg/kg, […], tissue Blood, route gavage, dose level Middle, time 28 day
The reply should contain only the number, in %.

Some solved cases for reference:
O=C(OC[C@H]1O[C@@H](OC(=O)c2cc(O)c(O)c(OC(=O)c3cc(O)c(O)c(O)c3)c2)[C@H](OC(=O)c2cc(O)c(O)c(OC(=O)c3cc(O)c(O)c(O)c3)c2)[C@@H](OC(=O)c2cc(O)c(O)c(OC(=O)c3cc(O)c(O)c(O)c3)c2)[C@@H]1OC(=O)c1cc(O)c(O)c(OC(=O)c2cc(O)c(O)c(O)c2)c1)c1cc(O)c(O)c(OC(=O)c2cc(O)c(O)c(O)c2)c1 [TANNIC ACID]
77.8
Cc1nnc2n1-c1ccc(Cl)cc1C(c1ccccc1Cl)=NC2 [TRIAZOLAM]
82

Consider now this further molecule.
# return recorded Lym for input CNC(=C[N+](=O)[O-])NCCSCc1ccc(CN(C)C)o1 [RANITIDINE]
81.4

---

Reported KIDNEY_TOTAL values for a set of compounds
Species on record: Rattus norvegicus
Assay: Open TG-GATES - Regimen: Single
Type: toxicity, organism-based, Sprague-Dawley
Design: regimen Single, gender Male, age 6 weeks
Conditions: in vivo, po, 100 mg/kg, 6 h, tissue Kidney, route gavage, dose level Low
Field format: number, assumed g, no unit text.

CN/C(=N/CCSCc1nc[nH]c1C)NC#N
1.9
COC(=O)C1=C(C)NC(C)=C(C(=O)OC)C1c1ccccc1[N+](=O)[O-]
1.7
CNC(=C[N+](=O)[O-])NCCSCc1ccc(CN(C)C)o1
2

Let's switch to this compound now.
State its KIDNEY_TOTAL: Cc1nnc2n1-c1ccc(Cl)cc1C(c1ccccc1Cl)=NC2
1.7

---

Organism: Rattus norvegicus
Assay: Open TG-GATES - Regimen: Single
Type: toxicity, organism-based, Sprague-Dawley
Design: regimen Single, gender Male, age 6 weeks
Conditions: in vivo, po, 0 mg/kg, 3 h, tissue Plasma, route gavage, dose level Control
attribute measured: CRE (mg/dL)
Report as a plain number; the unit mg/dL is understood.

Return CRE (reported value) for this molecule: NC1=NC(=O)C(c2ccccc2)O1 (centres undefined) [PEMOLINE]
0.2

Answer with the recorded CRE of CN1C(=O)CCS(=O)(=O)C1c1ccc(Cl)cc1 (centres undefined) [CHLORMEZANONE] only.
0.1

Give reported CRE value for O=C(OC[C@H]1O[C@@H](OC(=O)c2cc(O)c(O)c(OC(=O)c3cc(O)c(O)c(O)c3)c2)[C@H](OC(=O)c2cc(O)c(O)c(OC(=O)c3cc(O)c(O)c(O)c3)c2)[C@@H](OC(=O)c2cc(O)c(O)c(OC(=O)c3cc(O)c(O)c(O)c3)c2)[C@@H]1OC(=O)c1cc(O)c(O)c(OC(=O)c2cc(O)c(O)c(O)c2)c1)c1cc(O)c(O)c(OC(=O)c2cc(O)c(O)c(O)c2)c1 [TANNIC ACID]
0.4

# return recorded CRE for input CS(=O)(=O)O.Cc1ccc(NC(=O)c2ccc(CN3CCN(C)CC3)cc2)cc1Nc1nccc(-c2cccnc2)n1 [IMATINIB MESYLATE]
0.2

---

Species on record: Rattus norvegicus
Experiment: Open TG-GATES - Regimen: Single
Assay type: toxicity, organism-based, Sprague-Dawley
Parameters: regimen Single, gender Male, age 6 weeks
Settings: in vivo, po, 0 mg/kg, 9 h, tissue Plasma, route gavage, dose level Control
# Cl per record follows
State the answer as a number, implicitly in meq/L.

Use the examples below as a reference point.
CC(C)NNC(=O)c1ccncc1
107
Nc1c2c(nc3ccccc13)CCCC2
107

Attention now shifts to the item below.
Consider the compound CNC(=C[N+](=O)[O-])NCCSCc1ccc(CN(C)C)o1 . State its measured Cl.
103.2

---

Organism: Rattus norvegicus
Experiment: Open TG-GATES - Regimen: Single
Format: toxicity, organism-based, Sprague-Dawley
Parameters: regimen Single, gender Male, age 6 weeks
Conditions: in vivo, po, 0 mg/kg, 3 h, tissue Kidney, route gavage, dose level Control
# KIDNEY_L values compiled below
I only need the number, in g, no unit after it.

# example entries with known answers
Nc1c2c(nc3ccccc13)CCCC2
0.9
CS(=O)(=O)O.Cc1ccc(NC(=O)c2ccc(CN3CCN(C)CC3)cc2)cc1Nc1nccc(-c2cccnc2)n1 [IMATINIB MESYLATE]
0.9
CNC(=C[N+](=O)[O-])NCCSCc1ccc(CN(C)C)o1
1

# next molecule below
Indicate the recorded KIDNEY_L value for this molecule: CN1C(=O)CCS(=O)(=O)C1c1ccc(Cl)cc1 (centres undefined)
1
